target-of-assay: Retinaldehyde dehydrogenase 3 (Homo sapiens) (UniProt P47895)
method-notes: qHTS for Inhibitors of the Aldehyde Dehydrogenase Family (ALDH1A3) Confirmatory screens (AID 2061311); further: nearly all actives have a fitted effect of over 60% in size
test-parameters: ALDH inhibition qHTS; series mostly up to 46 µM
Records with an inconclusive call do not appear. Activity calls are given as the source filed them. The call rests on the fitted dose curve; in most records, active means well fitted inhibition curve with a large enough effect; inconclusive means small, poorly fitted or top-dose-only effect; inactive means no such curve, though single readings can be large or run the other way.
Pick one: 1 = active, 0 = inactive

## Task Per the assay record, what outcome was assigned to CC(=O)c1c(C)n(-c2ccc(Cl)cc2)c2ccc(OC(=O)COc3ccccc3)cc12 ?
## Result 0

## Task Per the assay record, what outcome was assigned to CCc1ccc(-n2c(=O)c3cccnc3n2CC(=O)N(CC)c2cccc(C)c2)cc1 ?
## Result 1

## Task Per the assay record, what outcome was assigned to CC(=O)Nc1cccc(OCc2cccc(C3Nc4ccccc4C(=O)N3Cc3ccco3)c2)c1 (configuration not stated) ?
## Result 1

## Task Per the assay record, what outcome was assigned to CCOC(=O)c1c(C)n(-c2ccc(OC)cc2)c2ccc(OC(=O)COc3ccccc3)cc12 ?
## Result 0

## Task Per the assay record, what outcome was assigned to c1cc2c(cc1CNc1ccc(N3CCCCC3)cc1)OCO2 ?
## Result 1

## Task Per the assay record, what outcome was assigned to Cc1ccc(CNc2ccc(N3CCCCC3)cc2)cc1 ?
## Result 1

## Task Per the assay record, what outcome was assigned to O=C(O)CN1C(=O)/C(=C/c2ccc(-c3cccc(Cl)c3)o2)SC1=S ?
## Result 0

## Task Per the assay record, what outcome was assigned to COc1ccccc1-c1cnc2n[nH]c(-c3ccccc3C)c2n1 ?
## Result 0

## Task Per the assay record, what outcome was assigned to CN(C)CCCNc1cc(O)c2ncccc2c1 ?
## Result 1

## Task Per the assay record, what outcome was assigned to NC(=O)C1CCN(c2ncc(-c3ccc4c(c3)OCCCO4)s2)CC1 ?
## Result 0

## Task Per the assay record, what outcome was assigned to COc1ccc(CNc2ccc(S(=O)(=O)Nc3nccs3)cc2)cc1O ?
## Result 1

## Task Per the assay record, what outcome was assigned to COc1cccc(S(=O)(=O)NC2CCN(C#N)C2)c1 (configuration not stated) ?
## Result 0

## Task Per the assay record, what outcome was assigned to O=C1Nc2ccc(C(=O)c3ccco3)cc2/C1=C/c1cc(Cl)c(O)c(Cl)c1 ?
## Result 1

## Task Per the assay record, what outcome was assigned to O=C(C1CCN(Cc2ccccc2-c2ccccc2F)CC1)N1CCN(Cc2ccccc2)CC1 ?
## Result 0

## Task Per the assay record, what outcome was assigned to Cc1ccc2nc3sc(C(=O)NCCCN(C)C)cc3cc2c1 ?
## Result 1

## Task Per the assay record, what outcome was assigned to O=C1Nc2ccc(Cl)cc2/C1=C\c1cc(Cl)c(O)c(Cl)c1 ?
## Result 0

## Task Per the assay record, what outcome was assigned to Cc1ccc(-n2nc(C)c3c(C(=O)Nc4ccc(Br)c(C)c4)cc(C)nc32)cc1 ?
## Result 0

## Task Per the assay record, what outcome was assigned to CC1(C)CCC(C)(C)c2cc3c(cc21)Sc1ccccc1N=C3c1ccc(C(=O)O)cc1 ?
## Result 0

## Task Per the assay record, what outcome was assigned to COc1cccc(C2c3c(ncn(-c4ccccc4-c4ccccc4)c3=N)Oc3ccc4ccccc4c32)c1 (configuration not stated) ?
## Result 1

## Task Per the assay record, what outcome was assigned to Cc1ccc(S(=O)(=O)Nc2cnccc2C(=O)Nc2nc(-c3ccc4c(c3)CCCC4)cs2)cc1 ?
## Result 0

## Task Per the assay record, what outcome was assigned to Oc1cc(-c2cccnc2)cc2cccnc12 ?
## Result 1

## Task Per the assay record, what outcome was assigned to CCOC(=O)Cn1c(=O)oc2cc(S(=O)(=O)N3CCN(c4ccc(Cl)cc4)CC3)ccc21 ?
## Result 0
